- protocol: Intrinsic clearance from in vitro hepatocytes
- Assay type: in vitro ADME
- details: in vitro determined, read-out: Hep intrinsic CL
readout-type: hepatocyte CLint (µL/min/1e6 cells)
Write the value in µL/min/1e6 cells as a bare number.

Sure, the documented hepatocyte CLint for `CCn1c2ccccc2c2cc(-n3nncc3-c3ccccc3)ccc21` is 79

###

- protocol: Plasma and tissue pharmacokinetics after single IP dose (observed)
- Type: in vivo
- details: female, BALB/c, mouse; spleen; single IP 10 mg/kg, mice; read-out: AUC obs (AUC0-t)
readout-type: AUC(0-t)
Give me the value, and tack the unit on after it.

Sure, the documented AUC(0-t) for CCn1c2ccccc2c2cc(-n3nncc3-c3ccccc3)ccc21 [MBQ-167] is 3980 ng·h/mL

###

- protocol: Plasma and tissue pharmacokinetics after single IP dose (observed)
- Assay type: in vivo
- details: female, BALB/c, mouse; kidneys; single IP 10 mg/kg, mice; read-out: AUC obs (AUC0-t)
readout-type: AUC(0-t) (ng·h/mL)
Write the value in ng·h/mL as a bare number.

Sure, the documented AUC(0-t) for `CCn1c2ccccc2c2cc(-n3nncc3-c3ccccc3)ccc21` is 34300

###

- protocol: Plasma and tissue pharmacokinetics after single IP dose (observed)
- Format: in vivo
- details: female, BALB/c, mouse; lung; single IP 10 mg/kg, mice
readout-type: Cmax (ng/mL)
Write the value in ng/mL as a bare number.

Sure, the documented Cmax for CCn1c2ccccc2c2cc(-n3nncc3-c3ccccc3)ccc21 [MBQ-167] is 1540

###

- protocol: Plasma and tissue pharmacokinetics after single IP dose (observed)
- Type: in vivo
- details: female, BALB/c, mouse; liver; single IP 10 mg/kg, mice
readout-type: Cmax (ng/mL)
Write the value in ng/mL as a bare number.

Sure, the documented Cmax for `CCn1c2ccccc2c2cc(-n3nncc3-c3ccccc3)ccc21` is 4790

###

- protocol: Plasma and tissue pharmacokinetics after single IP dose (observed)
- Type: in vivo
- details: female, BALB/c, mouse; heart; single IP 10 mg/kg, mice; read-out: AUC obs (AUC0-t)
readout-type: AUC(0-t) (ng·h/mL)
Write the value in ng·h/mL as a bare number.

Sure, the documented AUC(0-t) for `CCn1c2ccccc2c2cc(-n3nncc3-c3ccccc3)ccc21` is 949

###

- protocol: Plasma and tissue pharmacokinetics after single IP dose (observed)
- Type: in vivo
- details: female, BALB/c, mouse; lung; single IP 10 mg/kg, mice; read-out: AUC obs (AUC0-t)
readout-type: AUC(0-t) (ng·h/mL)
Write the value in ng·h/mL as a bare number.

Sure, the documented AUC(0-t) for CCn1c2ccccc2c2cc(-n3nncc3-c3ccccc3)ccc21 [MBQ-167] is 1890

###

- protocol: Tumor pharmacokinetics in 4T1 tumor-bearing mice (observed)
- Type: in vivo
- details: BALB/c, mouse, tumor (4T1), single IP 10 mg/kg, read-out: AUC obs (AUC0-t)
readout-type: AUC(0-t) (ng·h/mL)
Write the value in ng·h/mL as a bare number.

Sure, the documented AUC(0-t) for `CCn1c2ccccc2c2cc(-n3nncc3-c3ccccc3)ccc21` is 10300

###

- protocol: Plasma and tissue pharmacokinetics after single IP dose (observed)
- Type: in vivo
- details: female, BALB/c, mouse; heart; single IP 10 mg/kg, mice
- Description: All animal studies were conducted under approved animal protocols (#A8180117, #A8180112) by the University of Puerto Rico Medical Sciences Campus Institutional Animal Care and Use Committee, in accordance with the principles and procedures outlined in the NIH Guideline for the Care and Use of Laboratory Animals. […] We used a validated bioanalytical method using supercritical fluid chromatography coupled with tandem mass spectrometry to quantify MBQ-167 in tumors and tissues, as previously described. […]
readout-type: Cmax (ng/mL)
Write the value in ng/mL as a bare number.

Sure, the documented Cmax for `CCn1c2ccccc2c2cc(-n3nncc3-c3ccccc3)ccc21` is 841

###

- protocol: Plasma and tissue pharmacokinetics after single IP dose (observed)
- Format: in vivo
- details: female, BALB/c, mouse; plasma; single IP 10 mg/kg, mice; read-out: AUC obs (AUC0-t)
readout-type: AUC(0-t) (ng·h/mL)
Write the value in ng·h/mL as a bare number.

Sure, the documented AUC(0-t) for CCn1c2ccccc2c2cc(-n3nncc3-c3ccccc3)ccc21 [MBQ-167] is 1420
